procedure.details: Human HepG2 cell viability assay in 384 well format
Format: toxicity, cell-based
Design: dose 125 nL, time 70.5 hour; concentration not given beside the values
measurement.conditions: HepG2 cells, read-out: Inhibition
measurement.name: cytotoxicity at 70.5 h (%)

| molecule | unit.annotation | measurement |
| --- | --- | --- |
| Cc1ncsc1CCN(C)Cc1cc2n(n1)CCN(Cc1ccco1)C2 | % | -16.9 |
| COc1ccc(CCC2CCCN(C(=O)CCc3cc(O)no3)C2)cc1 (configuration not stated) | % | -4.3 |
| COc1ccc(C)cc1CN(C)CC(N)=O | % | -7.37 |
| CCN(Cc1ccccc1)C(=O)CN1CCCC(Cn2cncn2)C1 (configuration not stated) | % | -4.31 |
| Cc1occc(=O)c1OCc1noc(C(=O)NC2CCCC2)n1 | % | -16.2 |
| Cc1ccc(C2CCCN2CC(=O)N(CCC#N)c2ccccc2)cc1 (configuration not stated) | % | -7.81 |
| CNC(=O)[C@@H](c1ccccc1F)N1CCC[C@H]1C(=O)NC1CC1 | % | -4.55 |
| CCN(C)C1CCCc2nc(C)sc21 (configuration not stated) | % | -5.07 |
| O=C(NCc1cc2n(n1)CCCN(Cc1ccc(Cl)s1)C2)C1CCC1 | % | -10.1 |
| O=C(NC[C@@H]1CCCO1)c1cccnc1N1CCCC1c1ccccc1 (some centres not stated) | % | -5.49 |
| Cc1ccc(-c2nc(CSCCC(=O)NC(N)=O)co2)c(C)c1 | % | 22 |
| CC(C)(CN)NS(=O)(=O)c1cccc(F)c1F | % | 9.16 |

Entry source: ChEMBL document CHEMBL3507680
